# Procedure details: Mouse PK studies after oral and IV dosing
# Type: in vivo
# Details: in vivo, iv, 1 mg/kg, IV, dose 1 mg/kg, read-out: IV AUC(0 − t)
Where AUC(0-t) equals or exceeds 1000 ng·h/mL, the correct label is 1 (yes); where it does not, the label is 0 (no).

q: For this molecule, is measured AUC(0-t) 1000 ng·h/mL or higher? C[C@H]1CC2(CCN(c3ccc(C(=O)N4CCC(N5CCN(c6ccc7c(c6)C(=O)N(C6CCC(=O)NC6=O)C7=O)CC5)CC4)nn3)CC2)CN1c1ccc(C#N)c(Cl)c1 (some centres unmarked) [Cpd. No. 499]
a: 1 (yes)

q: Is reported AUC(0-t) greater than or equal to 1000 ng·h/mL here: C[C@H]1CC2(CCN(c3cnc(C(=O)N4CCC(CN5CCN(c6ccc7c(c6)C(=O)N(C6CCC(=O)NC6=O)C7=O)CC5)CC4)cn3)CC2)CN1c1ccc(C#N)c(Cl)c1 (some centres unmarked) [Cpd. No. 492]
a: 0 (no)

q: API: above_or_equal(metric=AUC(0-t), cutoff=1000 ng·h/mL) for item C[C@H]1CC2(CCN(c3ccc(C(=O)N4CCN(CC5CCN(c6cc7c(cc6F)C(=O)N(C6CCC(=O)NC6=O)C7=O)CC5)CC4)nn3)CC2)CN1c1ccc(C#N)c(Cl)c1 (some centres unmarked) [compound 588]
a: 1 (yes)

q: Entry C[C@H]1CC2(CCN(c3ccc(C(=O)N4CCN(C5CCN(c6cc7c(cc6F)C(=O)N(C6CCC(=O)NC6=O)C7=O)CC5)CC4)cc3)CC2)CN1c1ccc(C#N)c(Cl)c1 (some centres unmarked) [Cpd. No. 540] : is its AUC(0-t) no less than 1000 ng·h/mL?
a: 1 (yes)

q: Is reported AUC(0-t) greater than or equal to 1000 ng·h/mL here: C[C@H]1CC2(CCN(c3cnc(C(=O)N4CCN(CC5CN(c6cc7c(cc6F)C(=O)N(C6CCC(=O)NC6=O)C7=O)C5)CC4)cn3)CC2)CN1c1ccc(C#N)c(Cl)c1 (some centres unmarked) [Cpd. No. 488]
a: 0 (no)

###

# Procedure details: Mouse PK studies after oral and IV dosing
# Assay type: in vivo
# Details: in vivo, iv, 1 mg/kg, IV, dose 1 mg/kg, read-out: IV Cl (converted)
# Experimental: The pharmacokinetics of representative Compounds of the Disclosure were determined after oral and IV dosing at the concentrations indicated in mouse (Table 7). […] The vehicles used in these studies are either (i) 10% PEG400+90% PBS (adjusted to pH to 8.0 by 0.5 N NaOH); or (ii) 100% PEG200.
So basically: clearance at 5 mL/min/kg or higher? That is class 1. Lower than 5 mL/min/kg? That is class 0.

q: Say whether C[C@H]1CC2(CCN(c3ccc(C(=O)N4CCC(N5CCN(c6ccc7c(c6)C(=O)N(C6CCC(=O)NC6=O)C7=O)CC5)CC4)cc3F)CC2)CN1c1ccc(C#N)c(Cl)c1 (some centres unmarked) shows clearance of 5 mL/min/kg or more.
a: class 0

q: Given the entry C[C@H]1CC2(CCN(c3cnc(C(=O)N4CCC(N5CCN(c6cc7c(cc6F)C(=O)N(C6CCC(=O)NC6=O)C7=O)CC5)CC4)cn3)CC2)CN1c1ccc(C#N)c(Cl)c1 (some centres unmarked) , answer whether its clearance meets or surpasses 5 mL/min/kg.
a: class 1

q: Check the entry C[C@H]1CC2(CCN(c3ccc(C(=O)N4CCN(CC5CN(c6ccc7c(c6)C(=O)N(C6CCC(=O)NC6=O)C7=O)C5)CC4)c(F)c3)CC2)CN1c1ccc(C#N)c(Cl)c1 (some centres unmarked) : does clearance equal or exceed 5 mL/min/kg?
a: class 0

q: Record C[C@H]1CC2(CCN(c3ccc(C(=O)N4CCC(CN5Cc6cc7c(cc6C5)C(=O)N(C5CCC(=O)NC5=O)C7=O)CC4)nn3)CC2)CN1c1ccc(C#N)c(Cl)c1 (some centres unmarked) ; criterion: clearance no lower than 5 mL/min/kg. Met?
a: class 1

q: Evaluate C[C@H]1CC2(CCN(c3cnc(C(=O)N4CCN(CC5CN(c6cc7c(cc6F)C(=O)N(C6CCC(=O)NC6=O)C7=O)C5)CC4)cn3)CC2)CN1c1ccc(C#N)c(Cl)c1 (some centres unmarked) : clearance at minimum 5 mL/min/kg?
a: class 1

q: Identify whether the reported clearance of the following compound is 5 mL/min/kg or greater: C[C@H]1CC2(CCN(c3ccc(C(=O)N4CCN(C5CN(c6cc7c(cc6F)C(=O)N(C6CCC(=O)NC6=O)C7=O)C5)CC4)cc3)CC2)CN1c1ccc(C#N)c(Cl)c1 (some centres unmarked)
a: class 0

q: Is clearance at least 5 mL/min/kg? Consider C[C@H]1CC2(CCN(c3ccc(C(=O)N4CCN(C5CN(c6ccc7c(c6)C(=O)N(C6CCC(=O)NC6=O)C7)C5)CC4)cc3)CC2)CN1c1ccc(C#N)c(Cl)c1 (some centres unmarked)
a: class 0

q: Does the reported clearance for C[C@H]1CC2(CCN(c3ccc(C(=O)N4CCN(CC5CN(c6ccc7c(c6)C(=O)N(C6CCC(=O)NC6=O)C7=O)C5)CC4)cc3F)CC2)CN1c1ccc(C#N)c(Cl)c1 (some centres unmarked) fall at or above the 5 mL/min/kg mark?
a: class 1

q: Threshold query (clearance >= 5 mL/min/kg) on C[C@H]1CC2(CCN(c3cnc(C(=O)N4CCC(CN5CCN(c6ccc7c(c6)C(=O)N(C6CCC(=O)NC6=O)C7=O)CC5)CC4)cn3)CC2)CN1c1ccc(C#N)c(Cl)c1 (some centres unmarked)
a: class 1

q: Given C[C@H]1CC2(CCN(c3cnc(C(=O)N4CCN(CC5CCN(c6ccc7c(c6)C(=O)N(C6CCC(=O)NC6=O)C7=O)CC5)CC4)cn3)CC2)CN1c1ccc(C#N)c(Cl)c1 (some centres unmarked) , state whether its clearance is at least 5 mL/min/kg.
a: class 1

q: I'd appreciate it if you could say whether C[C@H]1CC2(CCN(c3ccc(C(=O)N4CCC(CN5CCN(c6ccc7c(c6)C(=O)N(C6CCC(=O)NC6=O)C7=O)CC5)CC4)nn3)CC2)CN1c1ccc(C#N)c(Cl)c1 (some centres unmarked) has clearance at least equal to 5 mL/min/kg.
a: class 1

q: In plain terms: is recorded clearance at least 5 mL/min/kg for C[C@H]1CC2(CCN(c3ccc(C(=O)N4CCC(N5CCN(c6cc7c(cc6F)C(=O)N(C6CCC(=O)NC6=O)C7=O)CC5)CC4)nn3)CC2)CN1c1ccc(C#N)c(Cl)c1 (some centres unmarked) ?
a: class 1

q: Could you tell me if the measured clearance of C[C@H]1CC2(CCN(c3cnc(C(=O)N4CCC(CN5CCN(c6cc7c(cc6F)C(=O)N(C6CCC(=O)NC6=O)C7=O)CC5)CC4)cn3)CC2)CN1c1ccc(C#N)c(Cl)c1 (some centres unmarked) reaches 5 mL/min/kg or more?
a: class 1

q: Determine whether measured clearance meets or exceeds 5 mL/min/kg for C[C@H]1CC2(CCN(c3ccc(C(=O)N4CCN(CC5CCN(c6ccc7c(c6)C(=O)N(C6CCC(=O)NC6=O)C7=O)CC5)CC4)nn3)CC2)CN1c1ccc(C#N)c(Cl)c1 (some centres unmarked)
a: class 1

q: In plain terms: is recorded clearance at least 5 mL/min/kg for C[C@H]1CC2(CCN(c3ccc(C(=O)N4CC[C@@H](CN5CCN(c6ccc7c(c6)C(=O)N(C6CCC(=O)NC6=O)C7=O)CC5)C4)cc3)CC2)CN1c1ccc(C#N)c(Cl)c1 (some centres unmarked) ?
a: class 1

q: Tell me whether clearance is at least 5 mL/min/kg here: C[C@H]1CC2(CCN(c3ccc(C(=O)N4CCN(C5CCN(c6ccc7c(c6)C(=O)N(C6CCC(=O)NC6=O)C7=O)CC5)CC4)cc3)CC2)CN1c1ccc(C#N)c(Cl)c1 (some centres unmarked)
a: class 0

q: Evaluate C[C@H]1CC2(CCN(c3ccc(C(=O)N4CCN(CC5CN(c6ccc7c(c6)C(=O)N(C6CCC(=O)NC6=O)C7=O)C5)CC4)nn3)CC2)CN1c1ccc(C#N)c(Cl)c1 (some centres unmarked) : clearance at minimum 5 mL/min/kg?
a: class 0

q: State whether the measured clearance reaches 5 mL/min/kg, counting equality as reaching it, for C[C@H]1CC2(CCN(c3ccc(C(=O)N4CCC(CN5CCN(c6cc7c(cc6F)C(=O)N(C6CCC(=O)NC6=O)C7=O)CC5)CC4)cc3)CC2)CN1c1ccc(C#N)c(Cl)c1 (some centres unmarked)
a: class 0

q: Form field: clearance at least 5 mL/min/kg? Entry: C[C@H]1CC2(CCN(c3ccc(C(=O)N4CCN(CC5CN(c6cc7c(cc6F)C(=O)N(C6CCC(=O)NC6=O)C7=O)C5)CC4)nn3)CC2)CN1c1ccc(C#N)c(Cl)c1 (some centres unmarked)
a: class 1
